Target: Dickkopf-related protein 1 (Homo sapiens)
Assay: small molecules binding DKK1 protein – biochemical, small-molecule microarray, 635 nm fluorescence scan, primary screen (AID 1106);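 also: score merges emission near 667 nm with signal to noise over three replicate slides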
Conditions: higher = more signal
Label condition met when composite z-score is at or above -0.2; anything below gets condition not met.

# example entries with known answers
{"compound": "NCCCCCNC(=O)[C@H]1C[C@H]2C(=O)N3CCC[C@H]3C(=O)N2[C@H]1c1ccc(O)cc1", "category": "condition met"}
{"compound": "CCCC[C@H]1C[C@@H]1[C@@H]1N(P(=O)(c2ccccc2)c2ccccc2)C[C@@](O)(c2ccccc2)CC12CC2", "category": "condition not met"}
{"compound": "CC(=O)NCCCC[C@@H]1NC(=O)[C@H]2C[C@@H](C(=O)NCCCCCNC(=O)CS)[C@@H](c3ccc(O)cc3)N2C1=O", "category": "condition met"}
{"compound": "COC(=O)[C@@]1(CCC(=O)OC(C)(C)C)N=C(c2ccc(OCCCO)cc2)O[C@H]1c1ccccc1", "category": "condition not met"}
{"compound": "[N-]=[N+]=Nc1ccccc1C[C@]1(C(=O)NCc2ccccc2)N=C(c2ccc(OCCCO)cc2)O[C@H]1c1ccccc1N=[N+]=[N-]", "category": "condition not met"}

Request: Decide: composite z-score of "O=C(O)[C@H]1C[C@H]2C(=O)N3CCC[C@H]3C(=O)N2[C@H]1c1ccc(O)cc1" >= -0.2?
Result: condition not met

Request: Decide: composite z-score of "COCCCNC(=O)[C@@H]1c2ccccc2C(=O)N(Cc2ccccc2OC)[C@H]1c1ccc(CO)cc1" >= -0.2?
Result: condition met

Request: Decide: composite z-score of O=C1OCCC/C=C\[C@H]2OC34C=CCN(c5ccc6ccccc6c5)C(=O)[C@H]3N(CCCCCO)C(=O)[C@@H]4C12 (stereo not given in full) >= -0.2?
Result: condition not met

Request: Decide: composite z-score of "COC(=O)[C@]1(Cc2ccccc2)N=C(c2ccc(OCCCO)cc2)O[C@@H]1c1ccccc1N=[N+]=[N-]" >= -0.2?
Result: condition met

From: PubChem BioAssay
